# measured_target: human RORγ (Homo sapiens, UniProt P51449)
# Construct: human RORγ, from Ser253 to Lys518; expressed in transfected cells; host or cells: CHO cells (Chinese hamster ovary), transient co-transfection with pG5-Luc
# Sequence (P51449 253-518): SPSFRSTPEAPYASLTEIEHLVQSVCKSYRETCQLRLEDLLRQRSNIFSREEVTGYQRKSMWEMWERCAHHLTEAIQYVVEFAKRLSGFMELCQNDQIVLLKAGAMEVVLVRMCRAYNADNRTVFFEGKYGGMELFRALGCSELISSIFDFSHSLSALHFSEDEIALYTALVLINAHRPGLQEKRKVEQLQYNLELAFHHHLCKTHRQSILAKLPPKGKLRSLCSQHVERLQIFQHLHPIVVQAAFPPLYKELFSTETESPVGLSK
# assay_overview: In vitro assay of inhibitory effect against RORγ transcriptional activity (GAL4-hRORγ LBD luciferase reporter gene assay in CHO cells)
# Assay type: cell-based
# experimental_context: value in parentheses beside the > EC50 bound; vehicle-control 0.2% DMSO alone = 100%
# Protocol: In Vitro Assay of Inhibitory Effect Against RORγ Transcriptional Activity Inhibitory effect of a test article on transcriptional activity of RORγ was measured by means of the following reporter gene assay. […] RORγ transcriptional activity was detected as the intracellular luciferase activity using SteadyLite HTS Reporter Gene Assay System (Perkin Elmer). […] After the incubation at room temperature for 10 minutes, luminescence of each well was measured by a microplate reader. […]
property_name: hRORγ luciferase activity, %-of-control

// solved cases for hRORγ luciferase activity, %-of-control follow
{"compound": "CC(C)C1=CN([C@H]2C[C@H](C(=O)O)C2)C(=O)N[C@]1(C)c1cc(Cl)c(CCC(C)(C)C)cc1F [Example 103]", "hRORγ luciferase activity, %-of-control": "(65%)"}
{"compound": "CC(C)C1=CN(CCC(=O)O)C(=O)N[C@]1(C)c1ccc(C2=CCCCC2)c(Cl)c1 [Example 133]", "hRORγ luciferase activity, %-of-control": "(71%)"}
{"compound": "CC(C)C1=CN(CCC(=O)O)C(=O)N[C@]1(C)c1ccc(C2CCC2)c(Cl)c1 [Example 152]", "hRORγ luciferase activity, %-of-control": "(56%)"}
{"compound": "CC(C)C1=CN(CCCC(=O)O)C(=O)N[C@]1(C)c1ccc(CCC(C)(C)C)c(Cl)c1 [Example 14]", "hRORγ luciferase activity, %-of-control": "(69%)"}
{"compound": "CC(C)C1=CN(CCC(=O)O)C(=O)N[C@]1(C)c1ccc(C2CCCCC2)c(Cl)c1 [Example 135]", "hRORγ luciferase activity, %-of-control": "(90%)"}
{"compound": "CC(C)C1=CN(C2CCC(C(=O)O)C2)C(=O)N[C@]1(C)c1ccc(CCC(C)(C)C)c(Cl)c1 (single isomer, unassigned) [Example 63]", "hRORγ luciferase activity, %-of-control": "(51%)"}
{"compound": "CC(C)C1=CN(CCC(=O)O)C(=O)N[C@]1(C)c1ccc(CCC2CCCC2)c(Cl)c1 [Example 119]", "hRORγ luciferase activity, %-of-control": "(74%)"}
{"compound": "CC(C)(C)COc1ccc(C2NC(=O)NC=C2C(C)(C)C(=O)O)cc1Cl (racemic) [Example 2]", "hRORγ luciferase activity, %-of-control": "(55%)"}
{"compound": "CC(C)C1=CN(CCCC(=O)O)C(=O)N[C@]1(C)c1ccc(CCC2CCC2)c(Cl)c1 [Example 109]", "hRORγ luciferase activity, %-of-control": "(60%)"}
{"compound": "CC(C)C1=CN(CCC(=O)O)C(=O)N[C@]1(C)c1ccc(CCC2CCCCC2)c(Cl)c1 [Example 138]", "hRORγ luciferase activity, %-of-control": "(85%)"}

Ask: Given the compound CC(C)C1=CN(CCC(=O)O)C(=O)N[C@]1(C)c1ccc(C2=CCCC2)c(Cl)c1 [Example 148] , write its reported hRORγ luciferase activity, %-of-control.
Reply: (57%)

Ask: Given the compound CC(C)C1=CN(CCC(=O)O)C(=O)N[C@]1(C)c1ccc(CCCC(F)(F)F)c(Cl)c1 [Example 128] , write its reported hRORγ luciferase activity, %-of-control.
Reply: (66%)

Ask: Given the compound CC(C)(C)CCc1ccc(C2NC(=O)N([C@H]3C[C@H](C(=O)O)C3)C=C2C(C)(C)C)cc1Cl (single isomer, unassigned) [Example 102] , write its reported hRORγ luciferase activity, %-of-control.
Reply: (76%)

Hello, the source for this data is patent US10196363B2, in case you need it.
